# Tested on: Beta-secretase 1 (Homo sapiens)
# Sequence (P56817 whole entry): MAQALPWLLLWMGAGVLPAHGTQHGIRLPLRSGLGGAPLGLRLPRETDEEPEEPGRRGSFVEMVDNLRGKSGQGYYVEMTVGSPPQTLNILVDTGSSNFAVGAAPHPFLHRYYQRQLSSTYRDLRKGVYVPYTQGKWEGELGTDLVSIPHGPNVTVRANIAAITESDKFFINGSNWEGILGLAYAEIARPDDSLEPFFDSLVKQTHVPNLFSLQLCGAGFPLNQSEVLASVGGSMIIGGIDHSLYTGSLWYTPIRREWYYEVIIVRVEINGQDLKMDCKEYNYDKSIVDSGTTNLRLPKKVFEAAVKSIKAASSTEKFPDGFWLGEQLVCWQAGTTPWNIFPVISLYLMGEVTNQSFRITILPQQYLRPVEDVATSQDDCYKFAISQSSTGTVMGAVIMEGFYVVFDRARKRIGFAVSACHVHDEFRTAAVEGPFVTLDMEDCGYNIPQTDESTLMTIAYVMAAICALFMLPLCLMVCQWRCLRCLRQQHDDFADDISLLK
# Experimental details: Inhibition of recombinant BACE1 expressed in baculovirus system using panvera peptide as substrate at 3 uM after 60 mins by spectrofluorometric analysis
Activity calls are given as the source filed them. The rule behind the calls is not given here.
Observation type: inhibition

Reference set (5 entries):
{"Molecule": "CCN(CCCCCCNC1=CC(=O)c2ncccc2C1=O)Cc1ccccc1OC", "inhibition": "inactive"}
{"Molecule": "COC1=CC(=O)C(N2CCC(C3CCN(Cc4ccccc4OC)CC3)CC2)=CC1=O", "inhibition": "32.9%"}
{"Molecule": "CCN(CCCCCCNC1=CC(=O)c2ccccc2C1=O)Cc1ccccc1OC", "inhibition": "60.2%"}
{"Molecule": "NCCCCCCNC1=CC(=O)c2ccccc2C1=O", "inhibition": "inactive"}
{"Molecule": "CCN(CCCCCCNC1=CC(=O)C(NCCCCCCN(CC)Cc2ccccc2OC)=CC1=O)Cc1ccccc1OC [MEMOQUIN]", "inhibition": "> 80%"}

Hi there! I need inhibition for each item below, if you can.
1. COc1ccccc1CN1CCC(N2CCC(NC3=CC(=O)c4ccccc4C3=O)CC2)CC1
2. CCN(CCCCCCNC1=CC(=O)C(OC)=CC1=O)Cc1ccccc1OC

Response line:
1: inactive; 2: 32.8%

# batch: return inhibition for each of the 2 molecules below
1. CCN(CCCCCCNC1=CC(=O)C(C)=C(C)C1=O)Cc1ccccc1OC
2. COc1ccccc1CNCCCCCCNC1=CC(=O)c2ccccc2C1=O

Response line:
["12.8%", "inactive"]

====

# Experimental details: Inhibition of amyloid beta (1 to 42) self-aggregation assessed as fibril formation at 10 uM after 24 hrs by thioflavin T-based fluorometric assay
For each of the compounds below, state its inhibition.
Give bare numbers, in %.

{"Compound": "CCN(CCCCCCNC1=CC(=O)c2ccccc2C1=O)Cc1ccccc1OC", "Result unit": "%", "Measured": 27.3}
{"Compound": "CCN(CCCCCCNC1=CC(=O)C(OC)=CC1=O)Cc1ccccc1OC", "Result unit": "%", "Measured": 45.7}
{"Compound": "CCN(CCCCCCNC1=CC(=O)C(C)=C(C)C1=O)Cc1ccccc1OC", "Result unit": "%", "Measured": 30.2}
{"Compound": "COC1=CC(=O)C(N2CCC(C3CCN(Cc4ccccc4OC)CC3)CC2)=CC1=O", "Result unit": "%", "Measured": 20.5}
{"Compound": "COc1ccccc1CN1CCC(N2CCC(NC3=CC(=O)c4ccccc4C3=O)CC2)CC1", "Result unit": "%", "Measured": 21.4}

Go through the items and report each one's inhibition.
1. CCN(CCCCCCNC1=CC(=O)C(NCCCCCCN(CC)Cc2ccccc2OC)=CC1=O)Cc1ccccc1OC [MEMOQUIN]
2. CCN(CCCCCCNC1=CC(=O)c2ncccc2C1=O)Cc1ccccc1OC
3. NCCCCCCNC1=CC(=O)c2ccccc2C1=O
4. COc1ccccc1CNCCCCCCNC1=CC(=O)c2ccccc2C1=O

Response line:
66.8
15.4
13.8
29.5

====

# Tested on: Acetylcholinesterase (Homo sapiens)
# Sequence (P22303 whole entry): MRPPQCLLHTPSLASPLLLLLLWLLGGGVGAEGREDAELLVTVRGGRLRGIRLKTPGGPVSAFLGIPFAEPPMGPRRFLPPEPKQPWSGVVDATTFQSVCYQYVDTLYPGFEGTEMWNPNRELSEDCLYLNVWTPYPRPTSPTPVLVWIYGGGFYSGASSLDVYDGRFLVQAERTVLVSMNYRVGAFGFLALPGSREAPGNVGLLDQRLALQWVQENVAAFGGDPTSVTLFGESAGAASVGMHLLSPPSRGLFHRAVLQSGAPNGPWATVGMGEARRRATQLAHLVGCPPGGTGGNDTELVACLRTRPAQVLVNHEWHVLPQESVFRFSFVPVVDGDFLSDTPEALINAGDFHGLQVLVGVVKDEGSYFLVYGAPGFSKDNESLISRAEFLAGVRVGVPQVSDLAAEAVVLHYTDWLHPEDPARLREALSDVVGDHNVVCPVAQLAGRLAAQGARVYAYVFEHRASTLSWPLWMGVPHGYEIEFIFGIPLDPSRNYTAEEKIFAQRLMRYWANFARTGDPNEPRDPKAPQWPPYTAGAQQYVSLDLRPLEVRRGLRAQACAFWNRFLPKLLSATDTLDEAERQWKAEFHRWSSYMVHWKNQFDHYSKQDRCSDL
# Experimental details: Inhibition of human recombinant AChE-induced amyloid beta (1-40) aggregation assessed as fibril formation after 24 hrs by thioflavin T-based fluorometric assay
Observation type: pIC50
One number for each entry, as −log10 of the molar value.

Prompt line: Record request: pIC50 value, item CCN(CCCCCCNC1=CC(=O)c2ccccc2C1=O)Cc1ccccc1OC
Response line: 4.35
